Target: JAK1 (Homo sapiens)
Construct: purchased Invitrogen
Sequence (P23458 whole entry): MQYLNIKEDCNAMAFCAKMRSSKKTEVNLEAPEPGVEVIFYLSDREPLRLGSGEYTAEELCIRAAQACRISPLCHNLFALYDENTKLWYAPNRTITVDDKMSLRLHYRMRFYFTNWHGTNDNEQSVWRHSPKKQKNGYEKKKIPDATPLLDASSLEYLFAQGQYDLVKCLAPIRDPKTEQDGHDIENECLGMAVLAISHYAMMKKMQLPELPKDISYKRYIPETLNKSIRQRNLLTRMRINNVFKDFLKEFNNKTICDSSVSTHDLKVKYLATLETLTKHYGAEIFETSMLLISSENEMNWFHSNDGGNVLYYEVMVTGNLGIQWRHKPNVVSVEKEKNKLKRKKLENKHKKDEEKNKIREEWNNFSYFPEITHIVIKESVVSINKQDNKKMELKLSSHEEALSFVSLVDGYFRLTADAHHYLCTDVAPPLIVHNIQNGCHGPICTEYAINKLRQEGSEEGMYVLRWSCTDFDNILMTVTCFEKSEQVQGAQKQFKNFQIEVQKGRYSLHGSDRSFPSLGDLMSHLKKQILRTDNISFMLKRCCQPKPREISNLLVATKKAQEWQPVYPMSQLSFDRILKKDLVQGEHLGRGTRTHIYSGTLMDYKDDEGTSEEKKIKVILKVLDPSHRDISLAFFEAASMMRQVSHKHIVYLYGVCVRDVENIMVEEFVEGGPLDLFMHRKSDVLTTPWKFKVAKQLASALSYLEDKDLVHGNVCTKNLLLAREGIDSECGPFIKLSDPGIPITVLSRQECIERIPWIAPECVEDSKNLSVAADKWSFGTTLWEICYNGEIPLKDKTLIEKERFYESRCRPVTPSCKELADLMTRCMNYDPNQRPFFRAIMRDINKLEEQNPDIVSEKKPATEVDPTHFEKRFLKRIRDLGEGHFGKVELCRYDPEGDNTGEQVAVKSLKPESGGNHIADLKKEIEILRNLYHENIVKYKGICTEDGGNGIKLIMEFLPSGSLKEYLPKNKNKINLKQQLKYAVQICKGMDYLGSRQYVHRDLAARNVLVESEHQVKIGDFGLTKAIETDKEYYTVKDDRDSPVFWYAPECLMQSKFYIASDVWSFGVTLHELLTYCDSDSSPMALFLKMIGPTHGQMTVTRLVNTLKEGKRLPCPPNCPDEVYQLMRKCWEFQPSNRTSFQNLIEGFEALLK
Experiment: JAK1 enzyme inhibition test (LANCE method)
Format: biochemical
Conditions: test compound 1 μM; read-out: Inhibitory rate (%) JAK1 1 μM
Overview of recorded inhibition at 1 µM for various molecules
Answer format: numeric, % implied, no suffix.

Guide cases for inhibition at 1 µM, answers given:
Task item: What value of inhibition at 1 µM on JAK1 (Homo sapiens) does NS(=O)(=O)c1ccc(-c2cn([C@H]3CC[C@H](O)CC3)c3cc[nH]c(=O)c23)cc1 have?
Reply: 95

Task item: What value of inhibition at 1 µM on JAK1 (Homo sapiens) does N#CCc1ccc(-c2nn(-c3c(F)cccc3F)c3c(Br)c[nH]c(=O)c23)cc1 have?
Reply: 94

Task item: What value of inhibition at 1 µM on JAK1 (Homo sapiens) does CC(=O)c1c[nH]c(=O)c2c(-c3csc(C(N)=O)c3)cn(C3CCCC3)c12 have?
Reply: 50

Task item: What value of inhibition at 1 µM on JAK1 (Homo sapiens) does O=c1[nH]ccc2c1c(-c1ccc(N3CCOCC3)nc1)nn2-c1c(F)cccc1F have?
Reply: 93

Task item: What value of inhibition at 1 µM on JAK1 (Homo sapiens) does CNC(=O)c1cc(F)cc(-c2nn(-c3c(F)cccc3F)c3cc[nH]c(=O)c23)c1 have?
Reply: 34

Others:
Task item: What value of inhibition at 1 µM on JAK1 (Homo sapiens) does COC(=O)c1cc(-c2nn(-c3c(F)cccc3F)c3cc[nH]c(=O)c23)cs1 have?
Reply: 97

Task item: What value of inhibition at 1 µM on JAK1 (Homo sapiens) does CNC(=O)c1cc(-c2nn(-c3c(F)cccc3F)c3c(Cl)c[nH]c(=O)c23)cs1 have?
Reply: 99

Task item: What value of inhibition at 1 µM on JAK1 (Homo sapiens) does NC(=O)c1cc(-c2nn(C3CCCC3)c3c(Br)c[nH]c(=O)c23)cs1 have?
Reply: 94

====

Overview of recorded inhibition at 1 µM for various compounds
Target: Tyk2 (Homo sapiens)
Construct: purchased Invitrogen
Sequence (P29597 whole entry): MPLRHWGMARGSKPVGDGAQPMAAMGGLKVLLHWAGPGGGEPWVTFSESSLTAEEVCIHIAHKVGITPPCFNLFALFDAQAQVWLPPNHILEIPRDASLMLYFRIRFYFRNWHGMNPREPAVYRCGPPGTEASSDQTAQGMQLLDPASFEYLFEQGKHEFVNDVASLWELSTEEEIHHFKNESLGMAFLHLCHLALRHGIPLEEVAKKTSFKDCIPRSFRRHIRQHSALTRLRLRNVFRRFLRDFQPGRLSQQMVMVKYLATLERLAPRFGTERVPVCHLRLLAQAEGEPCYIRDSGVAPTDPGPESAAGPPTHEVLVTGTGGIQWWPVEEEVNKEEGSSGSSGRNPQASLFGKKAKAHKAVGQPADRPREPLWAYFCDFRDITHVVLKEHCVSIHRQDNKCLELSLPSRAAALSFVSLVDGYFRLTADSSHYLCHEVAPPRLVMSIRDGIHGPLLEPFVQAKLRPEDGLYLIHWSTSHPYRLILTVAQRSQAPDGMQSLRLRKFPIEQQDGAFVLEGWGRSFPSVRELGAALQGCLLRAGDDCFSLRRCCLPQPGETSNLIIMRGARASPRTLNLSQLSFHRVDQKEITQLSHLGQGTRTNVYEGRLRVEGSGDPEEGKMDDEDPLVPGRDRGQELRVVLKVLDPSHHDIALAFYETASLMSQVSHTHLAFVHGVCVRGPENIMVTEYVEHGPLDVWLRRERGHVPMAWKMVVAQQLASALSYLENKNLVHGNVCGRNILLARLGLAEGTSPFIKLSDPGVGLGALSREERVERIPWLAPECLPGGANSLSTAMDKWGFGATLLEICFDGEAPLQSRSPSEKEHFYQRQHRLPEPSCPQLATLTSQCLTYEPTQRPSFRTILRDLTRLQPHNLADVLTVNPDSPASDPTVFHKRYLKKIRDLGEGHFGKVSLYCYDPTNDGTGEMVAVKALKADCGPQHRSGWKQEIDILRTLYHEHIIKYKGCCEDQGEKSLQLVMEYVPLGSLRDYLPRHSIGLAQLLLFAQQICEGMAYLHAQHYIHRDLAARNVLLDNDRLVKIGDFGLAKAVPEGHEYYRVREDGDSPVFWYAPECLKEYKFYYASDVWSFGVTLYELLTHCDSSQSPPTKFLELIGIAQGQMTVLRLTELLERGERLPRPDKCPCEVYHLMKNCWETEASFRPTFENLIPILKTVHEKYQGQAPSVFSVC
Experiment: Tyk2 enzyme inhibition test (LANCE method)
Type: biochemical
Conditions: test compound 1 μM; read-out: Inhibitory rate (%) Tyk2 1 μM

Task item: Could you share which inhibition at 1 µM value was measured for NS(=O)(=O)c1ccc(-c2cn(C3CCCC3)c3cc[nH]c(=O)c23)cc1 [Example 2] ?
Reply: 97%

Task item: Could you share which inhibition at 1 µM value was measured for N#Cc1c[nH]c(=O)c2c1c(C1CCCC1)nn2-c1csc(C(=O)O)c1 [Example 65] ?
Reply: 76%

Task item: Could you share which inhibition at 1 µM value was measured for CNC(=O)Cc1cccc(-c2nn(-c3c(F)cccc3F)c3cc[nH]c(=O)c23)c1 [Example 253] ?
Reply: 98%

Now for the compound whose inhibition at 1 µM we want.
Task item: Could you share which inhibition at 1 µM value was measured for CC(C)(C(N)=O)c1ccc(-c2nn(-c3c(F)cccc3F)c3c(Cl)c[nH]c(=O)c23)cc1 [Example 188] ?
Reply: 100%

====

Molecular target: JAK1 (Homo sapiens)
Construct: purchased Invitrogen
Experiment: JAK1 enzyme inhibition test (LANCE method)
Format: biochemical
Details: test compound 1 μM; read-out: Inhibitory rate (%) JAK1 1 μM
MEASUREMENT TYPE: inhibition at 1 µM (%)
Answer format: numeric, % implied, no suffix.

Task item: What value of inhibition at 1 µM on JAK1 (Homo sapiens) does NC(=O)c1cc(-n2nc(C3CCCC3)c3cc[nH]c(=O)c32)cs1 [Example 117] have?
Reply: 99

Task item: What value of inhibition at 1 µM on JAK1 (Homo sapiens) does N#Cc1c[nH]c(=O)c2c(-c3cccc(C(N)=O)c3)cn(C3CCCC3)c12 [Example 89] have?
Reply: 64

Task item: What value of inhibition at 1 µM on JAK1 (Homo sapiens) does O=c1[nH]ccc2c1c(-c1ccc(N3CCOCC3)cc1)nn2C1CCC(F)(F)CC1 [Example 266] have?
Reply: 85

Task item: What value of inhibition at 1 µM on JAK1 (Homo sapiens) does COCCNC(=O)c1ccc(-c2nn(-c3c(F)cccc3F)c3c(Cl)c[nH]c(=O)c23)cc1 [Example 231] have?
Reply: 51

Task item: What value of inhibition at 1 µM on JAK1 (Homo sapiens) does O=C1Cc2cc(-c3nn(C4CCCC4)c4cc[nH]c(=O)c34)ccc2N1 [Example 58] have?
Reply: 86

Others:
Task item: What value of inhibition at 1 µM on JAK1 (Homo sapiens) does COc1cccc(-c2nn(C3CCCC3)c3cc[nH]c(=O)c23)c1 [Example 47] have?
Reply: 62

Task item: What value of inhibition at 1 µM on JAK1 (Homo sapiens) does CC(C)(C)NC(=O)c1cc(-c2cn(C3CCCC3)c3c(C#N)c[nH]c(=O)c23)cs1 [Example 123] have?
Reply: 99

Task item: What value of inhibition at 1 µM on JAK1 (Homo sapiens) does N#CCc1cc(-c2nn(-c3c(F)cccc3F)c3c(Cl)c[nH]c(=O)c23)cs1 [Example 152] have?
Reply: 97
